system: murine neural precursor cells (neurosphere cultures); experiment: HTS of LOPAC library against secondary neurosphere cultures, MTT proliferation assay at 3 μM, day 7 (z score, P value); type: cell-based, mouse; conditions: LOPAC library screen, 3 μM, MTT, secondary neurosphere cultures, day 7
Structures can show the parent of a compound that is named as a salt.
readout-type: Z Score

Example cases with answers are listed next.
Q: Check the records and state Z Score for `COc1cc2c(CCNC(C)=O)c[nH]c2cc1Cl`
Ans: −1.659

Q: Check the records and state Z Score for O=C(CCCN1CCC(O)(c2cccc(C(F)(F)F)c2)CC1)c1ccc(F)cc1 [Trifluperidol hydrochloride]
Ans: −1.621

Now look at this one.
Q: Check the records and state Z Score for CC(C)(Oc1ccc(C2CC2(Cl)Cl)cc1)C(=O)O (stereo not drawn) [Ciprofibrate]
Ans: −1.326

----------
Give Z score for every item shown.
system: murine neural precursor cells (neurosphere cultures); assay: HTS of LOPAC library against secondary neurosphere cultures, MTT proliferation assay at 3 μM, day 7 (z score, P value); type: cell-based, mouse; conditions: LOPAC primary screen, neurosphere MTT proliferation, 3 μM, day 7
Numbers only.

Example cases with answers are listed next.
Q: Check the records and state Z score for CC(C)NCC(O)COc1cccc2[nH]ccc12 (stereo not drawn) [Pindolol]
Ans: −0.079

Q: Check the records and state Z score for O=C(O)CCCCCCCC(=O)O [Azelaic acid]
Ans: 0.106

Q: Check the records and state Z score for `Cl.O=C(CCCN1CCC2(CC1)C(=O)N(CCc1ccc(N=C=S)cc1)CN2c1ccccc1)c1ccc(F)cc1`
Ans: −0.415

Items follow; give Z score for each.
1. CCCN(CCC)[C@H]1CCc2c(F)ccc(O)c2C1.Cl [S(−)-UH-301 hydrochloride]
2. O=C(O)c1cccnc1Nc1cccc(C(F)(F)F)c1 [Niflumic acid]
3. Cl.O[Si](CCCN1CCCCC1)(c1ccc(F)cc1)C1CCCCC1 (stereo not drawn)
4. O=C(Nc1ccccc1)c1cc([N+](=O)[O-])ccc1Cl [GW9662]
5. Cc1nc2ccccn2c(=O)c1CCN1CCC(C(=O)c2ccc(F)cc2)CC1 [Pirenperone]

Ans:
["−2.706", "−1.958", "−1.492", 1.475, 0.228]

Q: Check the records and state Z score for Br.Oc1ccc(C2CNCc3sccc32)cc1O (stereo not drawn) [SKF 89626]
Ans: −0.044

----------
Give Z score for every item shown.
tested on: murine neural precursor cells (neurosphere cultures); assay: HTS of LOPAC library against secondary neurosphere cultures, MTT proliferation assay at 3 μM, day 7 (z score, P value); format: cell-based, mouse; conditions: LOPAC primary screen, neurosphere MTT proliferation, 3 μM, day 7
Structures can show the parent of a compound that is named as a salt.
Answers are plain numbers.

Example cases with answers are listed next.
Q: Check the records and state Z score for CCCCCCCCCC(=O)NC(CN1CCOCC1)[C@H](O)c1ccccc1.Cl (mixture of isomers)
Ans: −1.109

Q: Check the records and state Z score for Br.CN1CCc2cc(O)c(O)cc2C(c2ccccc2)C1 (centres unmarked) [SKF 75670 hydrobromide]
Ans: −0.142

Q: Check the records and state Z score for C[C@]12C=CC(=O)C=C1CC[C@@H]1C2=CC[C@]2(C)[C@@H](C(=O)CN3CCN(c4cc(N5CCCC5)nc(N5CCCC5)n4)CC3)CC[C@@H]12.O=C(O)/C=C\C(=O)O [U-74389G maleate]
Ans: −8.942

Q: Check the records and state Z score for COc1ccc2c(c1OC)C(=O)O[C@@H]2[C@H]1c2c(cc3c(c2OC)OCO3)CCN1C.Cl [Noscapine hydrchloride]
Ans: −2.455

Items follow; give Z score for each.
1. C=CCN1CC[C@]23c4c5ccc(O)c4O[C@H]2/C(=N/N=C2\CC[C@@]4(O)[C@H]6Cc7ccc(O)c8c7[C@@]4(CCN6CC=C)[C@H]2O8)CC[C@@]3(O)[C@H]1C5 [Naloxonazine dihydrochloride]
2. O=C(OCCN1CCOCC1)C1(c2ccccc2)CCCCC1 [PRE-084]
3. O=C(O)CCCCCCC1C(=O)NC(=O)N1CCC(O)C1CCCCC1 (centres unmarked) [BW 245C]

Ans:
["−0.606", 1.311, 1.036]
